- test-method-notes: AUC in rat at 8.5 mg/kg
- Assay type: ADME, organism-based
- Parameters: dose 8.5 mg/kg
- test-settings: plasma
test-readout: AUC (ng·h/mL)
Report as a plain number; the unit ng·h/mL is understood.

Exam item: Name the reported AUC value associated with the molecule Cn1c(=O)c2c(-c3cc(F)ccc3Br)c(CN)c(N)nc2n(C)c1=O
Marked response: 2640

---

- test-method-notes: Volume of distribution at steady state in rat at 8.5 mg/kg
- Type: ADME, organism-based
- Parameters: dose 8.5 mg/kg
- test-settings: in vivo, read-out: Vdss
test-readout: Vd (L/kg)
Your answer should be a plain number; it is taken to be in L/kg.

Exam item: Given the compound Cn1c(=O)c2c(-c3cc(F)ccc3Br)c(CN)c(N)nc2n(C)c1=O , what is its reported Vd?
Marked response: 3.49

---

- test-method-notes: Oral bioavailability in rat at 8.5 mg/kg
- Format: ADME, organism-based
- test-settings: in vivo
test-readout: bioavailability

Exam item: // query bioavailability value for entry Cn1c(=O)c2c(-c3cc(F)ccc3Br)c(CN)c(N)nc2n(C)c1=O
Marked response: 68%

---

- test-method-notes: Hepatic extraction ratio in human liver microsomes
- Type: ADME, Microsome
- test-settings: read-out: ERH
test-readout: hepatic extraction ratio
Kindly provide the number alone.

Exam item: Quick check: hepatic extraction ratio of Cn1c(=O)c2c(-c3cc(F)ccc3Br)c(CN)c(N3CCOCC3)nc2n(C)c1=O ?
Marked response: 0.64

Exam item: Entry Cn1c(=O)c2c(-c3cc(Cl)ccc3Cl)c(CN)c(N)nc2n(C)c1=O has what hepatic extraction ratio?
Marked response: 0.38

Exam item: Value lookup for hepatic extraction ratio; key = Cn1c(=O)c2c(-c3ccccc3Br)c(CN)c(N)nc2n(C)c1=O
Marked response: 0.28

Exam item: Consider the compound CN1CCN(c2nc3c(c(-c4cc(F)ccc4Br)c2CN)c(=O)n(C)c(=O)n3C)CC1 and give its measured hepatic extraction ratio.
Marked response: 0.19

---

- test-method-notes: AUC in rat at 13 mg/kg
- Assay type: ADME, organism-based
- Design: dose 13 mg/kg
- test-settings: plasma
test-readout: AUC (ng·h/mL)
Express the result in ng·h/mL but write the number alone.

Exam item: Quick one: AUC of CN1CCN(c2nc3c(c(-c4cc(F)ccc4Br)c2CN)c(=O)n(C)c(=O)n3C)CC1 ?
Marked response: 1160

---

- test-method-notes: Clearance in rat at 13 mg/kg
- Assay type: ADME, organism-based
- Design: dose 13 mg/kg
- test-settings: in vivo
test-readout: clearance
Param answer (str): number followed by unit.

Exam item: Data request, read-out clearance, for CN1CCN(c2nc3c(c(-c4cc(F)ccc4Br)c2CN)c(=O)n(C)c(=O)n3C)CC1
Marked response: 60 mL/min/kg

---

- test-method-notes: Oral bioavailability in rat at 13 mg/kg
- Format: ADME, organism-based
- test-settings: in vivo
test-readout: bioavailability (%)
Report only the number, with the unit % understood.

Exam item: Value lookup for bioavailability; key = CN1CCN(c2nc3c(c(-c4cc(F)ccc4Br)c2CN)c(=O)n(C)c(=O)n3C)CC1
Marked response: 31

---

- test-method-notes: Hepatic extraction ratio in rat liver microsomes
- Type: ADME, Microsome
- test-settings: read-out: ERH
test-readout: hepatic extraction ratio
Enter a number only.

Exam item: Reported hepatic extraction ratio for CN1CCN(c2nc3c(c(-c4cc(F)ccc4Br)c2CN)c(=O)n(C)c(=O)n3C)CC1 : what is it?
Marked response: 0.44

Exam item: Value lookup for hepatic extraction ratio; key = Cn1c(=O)c2c(-c3cc(Cl)ccc3Cl)c(CN)c(N)nc2n(C)c1=O
Marked response: 0.55

Exam item: Reported hepatic extraction ratio for Cn1c(=O)c2c(-c3ccccc3Br)c(CN)c(N)nc2n(C)c1=O : what is it?
Marked response: 0.61

Exam item: I am curious: what hepatic extraction ratio value has been reported for Cn1c(=O)c2c(-c3cc(F)ccc3Br)c(CN)c(N3CCOCC3)nc2n(C)c1=O ?
Marked response: 0.75
